EXPERIMENT_DESCRIPTION: Dissociation constant, pKa of the compound
Type: physicochemical
If the reported pKa equals or exceeds 4, assign condition met. If not, assign condition not met.

Reported pKa at or above 4? c1cncc(-c2ccc(-c3nnc(C4CN5CCC4CC5)o3)o2)c1 (stereo not drawn)
condition met

Tell me whether pKa is at least 4 here: C[C@@H](Oc1nnc(-c2ccncc2)n1C)c1noc(-c2cccc(Cl)c2)n1
condition not met

Is pKa at least 4? Consider c1ccc(-c2nnc(CN3CCN(Cc4nc5ccccc5s4)CC3)o2)cc1
condition met

Quick check, pKa >= 4? CCOC(=O)N1CCN(Cc2nnc(-c3cc(Cl)ccc3F)o2)CC1
condition not met

Record CN(Cc1nc2ccccc2c(=O)[nH]1)Cc1nnc(-c2ccccc2)o1 ; criterion: pKa no lower than 4. Met?
condition not met

Is pKa at least 4? Consider CN(Cc1nc2ccccc2c(=O)[nH]1)Cc1nc(-c2ccccc2)no1
condition not met

State whether the measured pKa reaches 4, counting equality as reaching it, for c1ccc(CN2CCN(Cc3nc(-c4ccccc4)no3)CC2)cc1
condition met

Record CCOC(=O)N1CCN(Cc2nnc(-c3cccc(Cl)c3)o2)CC1 ; criterion: pKa no lower than 4. Met?
condition not met

---

EXPERIMENT_DESCRIPTION: Lipophilicity, log D of the compound at pH 7.4
Assay type: physicochemical
CONDITION_SET: buffer
Doc: threshold 4 (exclusive). Items with logD beneath it return Y; others return N.

Known results for compounds:
CCOC(=O)N1CCN(Cc2noc(-c3cc(Cl)ccc3F)n2)CC1; N
c1ccc(CN2CCN(Cc3nc(-c4ccccc4)no3)CC2)cc1; N
c1ccc(CN2CCN(Cc3nnc(-c4ccccc4)o3)CC2)cc1; Y
C[C@@H](Oc1nnc(-c2ccncc2)n1C)c1noc(-c2cccc(Cl)c2)n1; Y
CCOC(=O)N1CCN(Cc2nnc(-c3cc(Cl)ccc3F)o2)CC1; Y

Let's switch to this compound now.
Does c1ccc(-c2noc(-c3ccccc3)n2)cc1 have logD strictly under 4?
N

---

EXPERIMENTAL_SYSTEM: CYP2D6 (Homo sapiens, UniProt P10635)
Sequence (P10635 whole entry): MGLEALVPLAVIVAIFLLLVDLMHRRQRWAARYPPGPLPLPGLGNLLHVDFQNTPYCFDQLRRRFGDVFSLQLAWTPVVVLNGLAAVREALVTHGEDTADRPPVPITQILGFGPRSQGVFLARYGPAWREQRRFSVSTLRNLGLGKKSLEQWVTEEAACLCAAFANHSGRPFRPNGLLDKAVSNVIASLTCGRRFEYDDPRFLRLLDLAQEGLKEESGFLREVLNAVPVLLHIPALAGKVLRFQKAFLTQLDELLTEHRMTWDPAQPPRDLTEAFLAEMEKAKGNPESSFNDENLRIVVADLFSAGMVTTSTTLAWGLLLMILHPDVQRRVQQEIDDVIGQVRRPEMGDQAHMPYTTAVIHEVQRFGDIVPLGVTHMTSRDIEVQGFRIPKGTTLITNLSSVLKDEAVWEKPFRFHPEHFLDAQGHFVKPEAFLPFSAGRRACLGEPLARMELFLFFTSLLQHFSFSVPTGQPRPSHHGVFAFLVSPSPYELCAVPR
EXPERIMENT_DESCRIPTION: Time dependent inhibition of human recombinant CYP2D6 coexpressed in Escherichia coli at 50 uM using bufuralol as probe
Assay type: ADME
REPORTED_ENDPOINT: inhibition at 50 µM

// worked examples, inhibition at 50 µM included
Clc1cc(-c2nnc(CSc3nnc(-c4ccncc4)n3C3CC3)o2)ccn1; < 11%
c1cc(-c2noc(C3CCCCC3)n2)ccn1; < 9%
O=C(NC1CCCCC1)c1nnc(CS(=O)(=O)c2ccccc2)o1; < 9%
c1cc(-c2nnc(C3CCCCC3)o2)ccn1; < 11%
O=C(NCc1ccncc1)c1nnc(CS(=O)(=O)c2ccccc2)o1; < 11%

The compound O=C(NC1CCCCC1)c1nc(CS(=O)(=O)c2ccccc2)no1 showed inhibition at 50 µM equal to < 9%

---

EXPERIMENTAL_SYSTEM: Cytochrome P450 2C8 (Homo sapiens, UniProt P10632)
Sequence (P10632 whole entry): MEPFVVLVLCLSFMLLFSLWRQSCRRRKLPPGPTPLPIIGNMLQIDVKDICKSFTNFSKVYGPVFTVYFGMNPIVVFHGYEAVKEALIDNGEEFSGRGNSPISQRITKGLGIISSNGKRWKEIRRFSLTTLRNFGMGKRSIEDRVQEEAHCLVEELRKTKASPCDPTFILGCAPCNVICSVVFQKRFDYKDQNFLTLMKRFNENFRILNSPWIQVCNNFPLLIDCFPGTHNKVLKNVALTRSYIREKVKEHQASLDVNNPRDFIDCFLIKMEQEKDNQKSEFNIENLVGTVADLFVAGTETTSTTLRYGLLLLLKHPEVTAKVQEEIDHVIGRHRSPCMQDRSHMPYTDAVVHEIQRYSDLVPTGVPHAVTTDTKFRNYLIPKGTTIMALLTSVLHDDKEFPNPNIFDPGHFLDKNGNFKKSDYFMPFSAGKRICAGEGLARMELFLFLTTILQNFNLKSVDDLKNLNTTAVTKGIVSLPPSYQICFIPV
EXPERIMENT_DESCRIPTION: Activity of human recombinant CYP2C8 assessed as enzyme contribution towards compound metabolism at 37 degC
Type: ADME
compounds and their reported Activity
Provide only the numeric value, understood in %.

As a guide, the following entries are already answered.
Clc1cc(-c2nc(CSc3nnc(-c4ccncc4)n3C3CC3)no2)ccn1; 0.2
O=C(NCc1ccncc1)c1nnc(CS(=O)(=O)c2ccccc2)o1; 0
Clc1cc(-c2nnc(CSc3nnc(-c4ccncc4)n3C3CC3)o2)ccn1; 0
c1ccc(CN2CCN(Cc3nc(-c4ccccc4)no3)CC2)cc1; 0.9

The compound c1ccc(CN2CCN(Cc3nnc(-c4ccccc4)o3)CC2)cc1 showed Activity equal to 1.5

Values from ChEMBL document CHEMBL2069246
